Kindly state hERG current change (%, negative = inhibition) at 10uM for each of the entries shown.
experimental-system: human ether-à-go-go-related gene (hERG) potassium channel (human, UniProt Q12809);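 also: peak tail current of the secondary pulse compared with the same well before compound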
Sequence (Q12809 whole entry, looked up): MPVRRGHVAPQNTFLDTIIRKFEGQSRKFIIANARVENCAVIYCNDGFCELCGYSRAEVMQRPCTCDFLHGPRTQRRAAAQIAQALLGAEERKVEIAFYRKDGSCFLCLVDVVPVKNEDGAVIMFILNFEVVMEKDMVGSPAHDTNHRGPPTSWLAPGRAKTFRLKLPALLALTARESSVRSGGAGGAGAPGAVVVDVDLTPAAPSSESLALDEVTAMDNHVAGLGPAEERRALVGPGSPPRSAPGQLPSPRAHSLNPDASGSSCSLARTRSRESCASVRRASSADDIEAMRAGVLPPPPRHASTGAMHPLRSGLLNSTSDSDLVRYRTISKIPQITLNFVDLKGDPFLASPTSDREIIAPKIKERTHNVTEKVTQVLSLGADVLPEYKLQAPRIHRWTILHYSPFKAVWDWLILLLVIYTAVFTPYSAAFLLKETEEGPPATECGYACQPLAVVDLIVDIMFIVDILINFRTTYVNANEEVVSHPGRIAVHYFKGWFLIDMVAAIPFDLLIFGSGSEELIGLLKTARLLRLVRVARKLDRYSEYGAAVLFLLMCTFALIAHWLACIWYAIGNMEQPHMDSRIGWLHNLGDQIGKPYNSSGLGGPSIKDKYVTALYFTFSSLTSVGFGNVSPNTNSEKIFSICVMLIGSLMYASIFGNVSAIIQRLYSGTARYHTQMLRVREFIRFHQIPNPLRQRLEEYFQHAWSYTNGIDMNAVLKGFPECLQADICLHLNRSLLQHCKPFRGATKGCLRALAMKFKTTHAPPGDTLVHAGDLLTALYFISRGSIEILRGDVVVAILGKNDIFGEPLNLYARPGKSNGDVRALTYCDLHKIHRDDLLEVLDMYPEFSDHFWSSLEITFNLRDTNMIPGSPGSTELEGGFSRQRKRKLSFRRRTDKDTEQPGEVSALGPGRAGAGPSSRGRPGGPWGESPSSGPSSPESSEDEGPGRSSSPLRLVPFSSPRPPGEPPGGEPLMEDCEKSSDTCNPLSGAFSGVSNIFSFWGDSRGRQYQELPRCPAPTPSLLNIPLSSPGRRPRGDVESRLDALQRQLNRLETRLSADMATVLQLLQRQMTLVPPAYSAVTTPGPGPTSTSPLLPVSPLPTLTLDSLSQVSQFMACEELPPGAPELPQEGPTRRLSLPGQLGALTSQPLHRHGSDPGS
test-name: primary screen, population patch clamp on CHO cells stably expressing hERG; higher = less effect of the substance
In all, about 310,000 compounds went through this assay and about 14,000 (4.5%) showed an effect of 50% or more. Effects have a minus sign here. Shown is part of a subset that was picked to be rich in strong results.
Field: numeric (%). Do not append units.

The molecule listed as Cc1nn(-c2ccccn2)c2c1C(c1ccncc1)C1=C(CC(C)(C)CC1=O)N2 (stereo not shown) has a reported hERG current change (%, negative = inhibition) at 10uM of -50.8

The molecule listed as O=C(CSc1nc(=O)n(CCCN2CCOCC2)c2c1CCCC2)Nc1ccc(Cl)cc1 has a reported hERG current change (%, negative = inhibition) at 10uM of -77.7

The molecule listed as Cc1cccc(-c2nnc3n2N=C(c2ccccc2Br)CS3)c1 has a reported hERG current change (%, negative = inhibition) at 10uM of -14.4

The molecule listed as O=C(CNC(=S)N(CCCN1CCOCC1)Cc1cccs1)NCCCN1CCOCC1 has a reported hERG current change (%, negative = inhibition) at 10uM of 15.1

The molecule listed as Cc1cc(C)c2c(SC(C)C)nc(N)nc2n1 has a reported hERG current change (%, negative = inhibition) at 10uM of -4.12

The molecule listed as OCCC1CCCCN1CC(O)COCc1ccc(Cl)cc1 (stereo not shown) has a reported hERG current change (%, negative = inhibition) at 10uM of -7.29

The molecule listed as CCc1ccc2nc3nc(C)cc(C)c3c(N)c2c1 has a reported hERG current change (%, negative = inhibition) at 10uM of 1.12

The molecule listed as Cc1ccc(NC(=O)CSc2nc(=O)n(CCCN3CCOCC3)c3c2CCCC3)cc1F has a reported hERG current change (%, negative = inhibition) at 10uM of -50.2

The molecule listed as COC(=O)/C(=C\Nc1ccccc1N)c1ncc(C(F)(F)F)cc1Cl has a reported hERG current change (%, negative = inhibition) at 10uM of 3.74

The molecule listed as Cc1ccc(C2C3=C(CCCC3=O)Nc3c2c(C)nn3-c2ccccn2)o1 (stereo not shown) has a reported hERG current change (%, negative = inhibition) at 10uM of 1.07

The molecule listed as NC(=O)C1(N2CCCCC2)CCN(CC(=O)Nc2cc(Cl)ccc2Cl)CC1 has a reported hERG current change (%, negative = inhibition) at 10uM of -72

The molecule listed as CCC1CCCCN1CC(O)COCc1cccc(OC)c1 (stereo not shown) has a reported hERG current change (%, negative = inhibition) at 10uM of 3.15

The molecule listed as Cn1c(N2CCOCC2)c(/C=N/O)c2ccccc21 has a reported hERG current change (%, negative = inhibition) at 10uM of 7.51

Just for reference, paper PMC4336329 is where these values come from.
